- Target or test system: cynomolgus CD19 (cynomolgus)
- Protocol summary: Octet HTX (ForteBio), IgG on AHC sensor, 1:1 fit
Outcome measure: Kd (nM)
// note: answer is a bare numeric in nM

Field: example entries. Status: answers known.
# Binder, Kd, nM
data = [
    ("CNG-CD19-106 (antibody, V domains shown) VH: QVQLVQSGAEVKKPGASVKVSCKASGYDFTDYIMHWVRQAPGQGLEWMGYINPYNDGSEYTEKFQGRVTMTSDTSISTAYMELSRLRSDDTAVYYCARGTYYYGPQLFDYWGQGTTVTVSS VL: DIVMTQTPLSLSVTPGQPASISCKSSQSLETATGTTYLNWYLQKPGQSPQLLIYRVSRRFSGVPDRFSGSGSGTDFTLKISRVEAEDVGVYYCLQLLEDPYTFGQGTKLEIK", 3.2),
    ("CNG-CD19-102 (antibody, V domains shown) VH: QVQLVQSGAEVKKPGASVKVSCKASGYEFTDYIMHWVRQAPGQGLEWMGYINPYNDGSKYTEKFQPRVTMTSDTSISTAYMELSRLRSDDTAVYYCARGTYYYGPQLFDYWGQGTTVTVSS VL: DIVMTQTPLSLSVTPGQPASISCKSSQSLETSTGTTYLNWYLQKPGQSPQLLIYRVSKRFSGVPDRFSGSGSGTDFTLKISRVEAEDVGVYYCLQLLEDPYTFGQGTKLEIK", 12.1),
]

Field: next binder
For the binder CNG-CD19-107 (antibody, V domains shown) VH: QVQLVQSGAEVKKPGASVKVSCKASGYDFTDYIMHWVRQAPGQGLEWMGYINPYNDGSKYTEKFQHRVTMTSDTSISTAYMELSRLRSDDTAVYYCARGTYYYGPQLFDYWGQGTTVTVSS VL: DIVMTQTPLSLSVTPGQPASISCKSSQSLETSTGTTYLNWYLQKPGQSPQLLIYRVSRRFSGVPDRFSGSGSGTDFTLKISRVEAEDVGVYYCLQLLEDPYTFGQGTKLEIK , what Kd is on record?
5.64

Taken from patent US20230037815A1.
